- target.system: Cathepsin B (CB) (Homo sapiens, UniProt P07858)
- assay.text: in vitro release study of PADM in CB solution
- Format: biochemical
- condition.notes: 37° C., read-out: half-life of ADM release
measured.property: half-life (min)

| molecule | display.unit | measured.number |
| --- | --- | --- |
| COc1cccc2c1C(=O)c1c(O)c3c(c(O)c1C2=O)C[C@@](O)(C(=O)CO)C[C@@H]3O[C@H]1C[C@H](NC(=O)OCc2ccc(NC(=O)[C@H](CCCCN)NC(=O)[C@H](Cc3ccccc3)NC(C)=O)cc2)[C@H](O)[C@H](C)O1 [PADM, Ac-Phe-Lys-PABC-ADM] | min | 16 |

Cited source for all entries: patent US20150335761A1
